The reported measurements were obtained from PubChem BioAssay (NCI).

- Tested on: BT-549 breast
- ASSAY_DETAILS: NCI-60 one-dose screen, 48 h (100 = growth as untreated, 0 = no growth, -100 = all killed)
- CONDITION_DESCRIPTION: 10 µM
- Procedure: Growth inhibition of the BT-549 human tumor cell line is measured as a screen for anti-cancer activity. Cells are grown in 96 well plates and exposed to the test compound for 48 hours. Compounds are tested at a single concentration, which is 10^-5 M for most compounds. The reported endpoint is percent growth (GI% or GIPRCNT), where numbers from 0 - 100% represent growth inhibition, and numbers from -100% - 0 represent cell death. For example, a value of 40 represents 60% growth inhibition. […]
About 83,000 compounds went through this panel and 20% of them were active in at least one assay; those are over-represented in the sample as a whole.
ASSAY_ENDPOINT: growth (%)

>  <COMPOUND>
CC[CH2][Pb]([CH2]CC)([CH2]CC)[O]C(=O)C(F)(F)F

>  <VALUE_REPORTED>
-95.3

$$$$
>  <COMPOUND>
CC1(C)N=C(N)N=C(N)N1c1ccc(OCCCCNC(=O)Nc2cccc(S(=O)(=O)F)c2)c(Cl)c1

>  <VALUE_REPORTED>
66.4

$$$$
>  <COMPOUND>
CCOC(=O)/C=C(\C)Nc1ccc(N/C(C)=C/C(=O)OCC)c2c1Oc1ccccc1O2

>  <VALUE_REPORTED>
102

$$$$
>  <COMPOUND>
CCC[CH2][Sn]1([CH2]CCC)[O]C(=O)c2cccc([N+](=O)[O-])c2C(=O)[O]1

>  <VALUE_REPORTED>
-99.6

$$$$
>  <COMPOUND>
CCC[CH2][Sn]([CH2]CCC)([CH2]CCC)[O]C(=O)c1ccc(Cl)cc1Cl

>  <VALUE_REPORTED>
-96

$$$$
>  <COMPOUND>
Nc1cccc2c1Oc1ccccc1O2

>  <VALUE_REPORTED>
104

$$$$
>  <COMPOUND>
O=c1cc[nH]c(=O)o1

>  <VALUE_REPORTED>
102

$$$$
>  <COMPOUND>
OB([O][Hg][c]1ccccc1)[O][Hg][c]1ccccc1

>  <VALUE_REPORTED>
-91.5

$$$$
>  <COMPOUND>
CC1CC=CCC12C(=O)NC(=S)NC2=O (centres undefined)

>  <VALUE_REPORTED>
110

$$$$
>  <COMPOUND>
CC(=O)[O][Hg][c]1nc2c(c(=O)n(C)c(=O)n2C)n1C

>  <VALUE_REPORTED>
111

$$$$
>  <COMPOUND>
C[CH2][Pb]([CH2]C)([CH2]C)[O]C(=O)c1ccc(N)cc1

>  <VALUE_REPORTED>
56.9

$$$$
>  <COMPOUND>
COC(=O)C1CC2c3ccccc3C1c1ccccc12 (centres undefined)

>  <VALUE_REPORTED>
120

$$$$
>  <COMPOUND>
C[C@]12CCC(=O)CC1CC[C@@H]1C2CC[C@@]2(C)C1CC[C@@H]2OC(=O)CC[Se][Se]CCC(=O)O[C@H]1CCC2[C@@H]3CCC4CC(=O)CC[C@]4(C)C3CC[C@@]21C (some centres undefined)

>  <VALUE_REPORTED>
96.8

$$$$
>  <COMPOUND>
Oc1ccc(O)c2c1C1(Cl)C(Cl)=C(Cl)C2(Cl)C1(Cl)Cl

>  <VALUE_REPORTED>
29.2

$$$$

---

- Tested on: SNB-19 CNS
- ASSAY_DETAILS: NCI-60 one-dose screen, 48 h (100 = growth as untreated, 0 = no growth, -100 = all killed)
- CONDITION_DESCRIPTION: 10 µM unless noted
The panel holds about 83,000 compounds, 20% with a hit somewhere; the sample as a whole holds those more often.
Consider the cut-off 90%. If the recorded growth is strictly smaller, the label is T; if not, the label is F.

>  <MOLECULE>
C[C@]12CC[C@@H]3C4=C(CC[C@H]3[C@@H]1CC[C@@H]2O)CC(=O)CC4

>  <CLASS_NAME>
F

$$$$
>  <MOLECULE>
O=S(=O)(c1ccc(Cl)cc1)C(Cl)(Cl)Cl

>  <CLASS_NAME>
T

$$$$
>  <MOLECULE>
COc1ccccc1N1CCN(CCc2c[nH]c3cc4c(cc23)OCO4)CC1

>  <CLASS_NAME>
T

$$$$
>  <MOLECULE>
O=C(O)c1nn(Cc2ccc(Cl)cc2)c2ccccc12

>  <CLASS_NAME>
F

$$$$
>  <MOLECULE>
O=[N+]([O-])c1cc([N+](=O)[O-])c(Cl)c(Cl)c1Cl

>  <CLASS_NAME>
T

$$$$
>  <MOLECULE>
COC(=O)C[Se]C(=O)c1ccccc1OC(C)=O

>  <CLASS_NAME>
T

$$$$
>  <MOLECULE>
CCCCOC(=O)c1ccccc1C(=O)O.CCCCOC(=O)c1ccccc1C(=O)O.[Cu+2]

>  <CLASS_NAME>
F

$$$$
>  <MOLECULE>
O=C(CCc1ccco1)NC1CCN(CC2(c3ccc(Cl)cc3)CCC2)CC1

>  <CLASS_NAME>
T

$$$$
>  <MOLECULE>
COc1ccc(C(=O)c2ccc([As]=O)cc2)cc1 (stereo not given)

>  <CLASS_NAME>
T

$$$$
>  <MOLECULE>
CNC(=O)O/N=C(/C)c1ccc(Cl)cc1

>  <CLASS_NAME>
F

$$$$
>  <MOLECULE>
CCN1CC2(CN(CC)C1=S)C(=O)NC(=O)NC2=O

>  <CLASS_NAME>
F

$$$$
>  <MOLECULE>
Cc1ccc(C(=O)C2CN(C)CCC2(O)c2ccc(C)cc2)cc1 (stereo not given)

>  <CLASS_NAME>
F

$$$$
>  <MOLECULE>
COc1ccc(/C=C(/C(=O)N2CCCC2)c2cc(OC)c(OC)c(OC)c2)cc1N

>  <CLASS_NAME>
T

$$$$
>  <MOLECULE>
Nc1cccc(CC(=O)Nc2ccc(S(=O)(=O)F)cc2)c1

>  <CLASS_NAME>
F

$$$$
>  <MOLECULE>
c1ccc([As]=[As]c2ccccc2)cc1 (stereo not given)

>  <CLASS_NAME>
T

$$$$
>  <MOLECULE>
c1ccc(-c2ccc3ccccc3[o+]2)cc1

>  <CLASS_NAME>
F

$$$$
>  <MOLECULE>
CCC[CH2][Sn]1([CH2]CCC)[O]C(=O)c2cccc([N+](=O)[O-])c2C(=O)[O]1

>  <CLASS_NAME>
T

$$$$
>  <MOLECULE>
C=CC(O)CN1CC1CC (stereo not given)

>  <CLASS_NAME>
F

$$$$
>  <MOLECULE>
N#[N+]c1nc2nc(N)[nH]c(=O)c2[nH]1

>  <CLASS_NAME>
F

$$$$

---

- Test system: MDA-MB-231 breast
- ASSAY_DETAILS: NCI-60 one-dose screen, 48 h
- CONDITION_DESCRIPTION: 10 µM unless noted
Compounds without any hit were thinned out: in the full panel of roughly 83,000, 20% have a hit. Active and inactive are the calls of the source. Rule for the calls: active = growth percent below 10; inactive = the rest.
Possible outcomes: 1 = active, 0 = inactive

>  <COMPOUND>
C[As](=O)(O)c1ccc(C(=O)O)cc1

>  <CLASS_NAME>
0

$$$$
>  <COMPOUND>
COc1ccc2c(c1)NC1=C(C(=O)OC1)C2c1cc(OC)c(OC)c(OC)c1 (stereo not drawn)

>  <CLASS_NAME>
1

$$$$
>  <COMPOUND>
CC(/C=N/N=C(N)N)=N/N=C(N)N

>  <CLASS_NAME>
0

$$$$
>  <COMPOUND>
C/C(=N/OC(=O)N(C)C)c1cc(Cl)ccc1Cl

>  <CLASS_NAME>
0

$$$$
>  <COMPOUND>
CC12CCC3C(CC=C4CC(O)CCC43C)C1C/C(=C\N1CCOCC1)C2=O (stereo not drawn)

>  <CLASS_NAME>
0

$$$$
>  <COMPOUND>
N#C[Se]CCCNS(=O)(=O)C1CC2C=CC1C2 (stereo not drawn)

>  <CLASS_NAME>
1

$$$$
>  <COMPOUND>
CC(C)(C)[Si](C)(C)OC1[C@@H](O[Si](C)(C)C(C)(C)C)[C@@H](CNC(=O)NC(=O)CF)O[C@H]1n1cnc2c(NC(=O)Nc3ccccc3)ncnc21 (stereo partly drawn)

>  <CLASS_NAME>
0

$$$$
>  <COMPOUND>
CCC[CH2][Sn]1([CH2]CCC)[O]C(=O)c2cccc([N+](=O)[O-])c2C(=O)[O]1

>  <CLASS_NAME>
1

$$$$

---

- System: NCI-H522 lung
- ASSAY_DETAILS: NCI-60 one-dose screen, 48 h
- CONDITION_DESCRIPTION: 10 µM unless noted
The panel holds about 83,000 compounds, 20% with a hit somewhere; the sample as a whole holds those more often. Activity calls are given as the source filed them. The calls were made as follows: active = growth percent below 10; inactive = the rest.
Possible outcomes: active, inactive

>  <MOLECULE>
CCOC(=O)c1cnc(SCc2ccc(Cl)c(Cl)c2)nc1N1CC1

>  <EXPERIMENTAL_SYSTEM>
NCI-H522 lung

>  <CLASS_NAME>
inactive

$$$$
>  <MOLECULE>
O=C1NC(=O)C(CN2C(=O)C3(c4ccccc42)[C@H](Cl)C(=O)N3c2ccccc2)C(=O)N1 (stereo partly drawn)

>  <EXPERIMENTAL_SYSTEM>
NCI-H522 lung

>  <CLASS_NAME>
inactive

$$$$
>  <MOLECULE>
CC(C)(C)NCC(O)c1ccccc1Cl (stereo not drawn)

>  <EXPERIMENTAL_SYSTEM>
NCI-H522 lung

>  <CLASS_NAME>
active

$$$$
>  <MOLECULE>
CC(C)OC(=S)[S-].[Au+].c1ccc([PH+](c2ccccc2)c2ccccc2)cc1

>  <EXPERIMENTAL_SYSTEM>
NCI-H522 lung

>  <CLASS_NAME>
active

$$$$
>  <MOLECULE>
CC(=O)[O][Hg][c]1ccccc1

>  <EXPERIMENTAL_SYSTEM>
NCI-H522 lung

>  <CLASS_NAME>
active

$$$$
>  <MOLECULE>
[Br][Pb]([c]1ccccc1)([c]1ccccc1)[c]1ccccc1

>  <EXPERIMENTAL_SYSTEM>
NCI-H522 lung

>  <CLASS_NAME>
active

$$$$
>  <MOLECULE>
c1ccc(-c2ccc3ccccc3[o+]2)cc1

>  <EXPERIMENTAL_SYSTEM>
NCI-H522 lung

>  <CLASS_NAME>
inactive

$$$$
>  <MOLECULE>
COc1ccc(C2SCC(=O)Nc3c2c(C)nn3-c2nc3ccc(C)cc3s2)cc1O (stereo not drawn)

>  <EXPERIMENTAL_SYSTEM>
NCI-H522 lung

>  <CLASS_NAME>
active

$$$$
